B1: VTI1B (parent)
chain: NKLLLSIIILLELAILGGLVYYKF

Variants of: B1
Assay: protein stability index of a GFP-peptide fusion (GPS, HEK-293T) (PSI 1-6); higher = more stable;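 note: lentivirally expressed fusions sorted by FACS into six bins by GFP to DsRed ratio, PSI derived from sequencing read proportions per bin multiplied by bin number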
Settings: c terminus: a fixed tail appended
measured-parameter: protein stability index
Give bare numbers.

L16I :: 1.99
L10W :: 3.4
K2R :: 2.99

Return reported protein stability index values for all items listed beneath this line.
1. K23Q
2. E12Q

Reply:
1: 3.58; 2: 3.45
